Values compiled from paper PMC4648258.

Tested on: M. tuberculosis rINH (ATCC 35822)
ASSAY SUMMARY: microbe, parasite or virus in culture
Format: cell-based, Mycobacterium tuberculosis
SETTINGS: Mycobacterium tuberculosis, ATCC35822
ATTRIBUTE MEASURED: MIC (µg/mL)
One number for each entry, in µg/mL.

Some compounds with known MIC results, for comparison:
COMPOUND	ATTRIBUTE MEASURED	RECORDED VALUE
[H]/N=C(/N)N[C@H]1[C@H](O)[C@@H](O)[C@H](O[C@@H]2O[C@@H](C)[C@](O)(C=O)[C@H]2O[C@@H]2O[C@@H](CO)[C@H](O)[C@@H](O)[C@@H]2NC)[C@@H](N/C(N)=N\[H])[C@@H]1O [SM, streptomycin]	MIC	0.46
O=[N+]([O-])c1cn2c(n1)OC[C@@H](OCc1ccc(OC(F)(F)F)cc1)C2 [PA824]	MIC	0.03

## Task Look up MIC with M. tuberculosis rINH (ATCC 35822) for this compound: CO[C@H]1/C=C/O[C@@]2(C)Oc3c(C)c(O)c4c(O)c(c(/C=N/N5CCN(C)CC5)c(O)c4c3C2=O)NC(=O)/C(C)=C\C=C\[C@H](C)[C@H](O)[C@@H](C)[C@@H](O)[C@@H](C)[C@H](OC(C)=O)[C@@H]1C [RMP, rifampicin]
## Result 0.01
